- tested target: Beta-secretase 1 (Homo sapiens)
- Sequence (P56817 whole entry): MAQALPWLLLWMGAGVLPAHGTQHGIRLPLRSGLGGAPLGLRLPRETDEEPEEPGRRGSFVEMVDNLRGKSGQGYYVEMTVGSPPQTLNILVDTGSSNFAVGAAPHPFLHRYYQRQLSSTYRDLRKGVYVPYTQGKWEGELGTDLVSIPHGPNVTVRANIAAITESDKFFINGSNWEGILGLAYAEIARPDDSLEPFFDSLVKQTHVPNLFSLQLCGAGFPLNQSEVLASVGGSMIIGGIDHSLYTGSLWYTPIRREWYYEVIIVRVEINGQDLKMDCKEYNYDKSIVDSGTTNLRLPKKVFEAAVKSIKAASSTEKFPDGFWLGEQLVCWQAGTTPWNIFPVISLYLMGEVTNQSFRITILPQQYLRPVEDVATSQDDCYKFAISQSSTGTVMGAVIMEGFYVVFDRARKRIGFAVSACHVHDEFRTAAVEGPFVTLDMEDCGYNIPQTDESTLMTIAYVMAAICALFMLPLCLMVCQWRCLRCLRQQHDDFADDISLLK
- assay overview: Inhibition of BACE1 at 100 uM by FRET assay
property: inhibition (%)

These recorded examples may help you get a feel for the data.
Oc1ccc(SCC(O)CN2CCC(C(O)(c3ccccc3)c3ccccc3)CC2)cc1 (stereo not given); 0
OC(CSc1ccccc1F)Cn1c2c(c3ccccc31)CCCC2 (stereo not given); 95
Cc1c(C)n(CC(O)CSc2ccccc2O)c2ccccc12 (stereo not given); 61
Oc1ccccc1SCC(O)CN1CCC(C(O)(c2ccccc2)c2ccccc2)CC1 (stereo not given); 3
OC(COc1ccc(Cc2ccccc2)cc1)CSc1ccccc1Cl (stereo not given); 81

(1) Oc1ccccc1SCC(O)COc1ccc(-c2ccccc2)cc1 (stereo not given)
(2) CCc1ccccc1SCC(O)CN1CCC(C(O)(c2ccccc2)c2ccccc2)CC1 (stereo not given)
(3) OC(COc1ccc(Cc2ccccc2)cc1)CSc1ccc(Cl)cc1 (stereo not given)
IN: Arrange by inhibition, high to low. Give your ranking as a list of the labels in the requested order.
OUT: 3, 1, 2

(1) Cc1cc(C)cc(SCC(O)COc2ccc(Cc3ccccc3)cc2)c1 (stereo not given)
(2) CCc1ccc(SCC(O)CN2CCC(C(O)(c3ccccc3)c3ccccc3)CC2)cc1 (stereo not given)
(3) OC(CSc1ccc2ccccc2c1)CN1CCCCCC1 (stereo not given)
(4) COc1cc2c(cc1OC)C(c1ccccc1)N(CC(O)CSc1ccccc1C)CC2 (stereo not given)
IN: Thanks in advance: please rank these 4 entries by inhibition, highest to lowest. // list labels; follow requested order
OUT: 1, 4, 2, 3

(I) Cc1ccc(SCC(O)CN2CCC(C(O)(c3ccccc3)c3ccccc3)CC2)cc1 (stereo not given)
(II) OC(CSc1ccccc1Cl)Cn1c2c(c3ccccc31)CCCC2 (stereo not given)
(III) COc1ccc(SCC(O)CN2CCC(C(O)(c3ccccc3)c3ccccc3)CC2)c(OC)c1 (stereo not given)
(IV) COc1cc2c(cc1OC)C(c1ccccc1)N(CC(O)CSc1ccc(F)cc1)CC2 (stereo not given)
IN: Exam item: list the entries in increasing order of inhibition. Provide your answer as the labels ordered per the instruction.
OUT: III, I, IV, II
(III: 0%, I: 1%, IV: 15%, II: 92%)

(a) CCc1cccc2ccn(CC(O)CSc3ccc(F)cc3)c12 (stereo not given)
(b) OC(CSc1nnnn1-c1ccccc1)CN1CCC(C(O)(c2ccccc2)c2ccccc2)CC1 (stereo not given)
IN: Endpoint returns whichever of a and b has the numerically higher inhibition. // respond with label for picked entry
OUT: a
